The measurements presented in this section are drawn from PubChem BioAssay (NCI).

- Test system: K-562 leukemia
- assay: NCI tumour cell line growth inhibition, 48 h
endpoint-name: TGI

Reference set, count: 5
[
  {
    "compound": "CCOc1ccc(N(CC(=O)N2CC(=O)Nc3cc(C)c(C)cc32)C(C)=O)cc1",
    "TGI": "> 100 µM"
  },
  {
    "compound": "COc1cc2c(/C=C3\\C(=O)N(C)c4ccccc43)c[nH]c2cc1C",
    "TGI": "> 100 µM"
  },
  {
    "compound": "CC(=O)Nc1ccc(S(=O)(=O)c2nnc(NC(C)=O)s2)cc1",
    "TGI": "> 100 µM"
  },
  {
    "compound": "CCOC(=O)C1CCCc2sc(N)c(C#N)c21 (stereo unspecified)",
    "TGI": "> 100 µM"
  },
  {
    "compound": "NC1CCN(c2nc3ccccc3c3c2CCCC3)CC1",
    "TGI": "6.58 µM"
  }
]

Entry O=C(C[C@@H]1CCCN2CCCC[C@H]12)N1c2ccccc2Sc2ccc(Cl)cc21 , TGI reported as 35.2 µM

Lab note: Cc1nc(C(N)=S)sc1C(=O)CC(=O)C(=O)Nc1ccc(Br)cc1 gave TGI of > 100 µM

The compound listed as COc1ccc(OC2(c3cc(OC)ccc3OC)OC(=O)c3ccccc32)cc1 (stereo unspecified) shows TGI equal to > 100 µM

The reported value for COc1cc(OC)c(C(=O)/C=C/c2ccc(C#N)cc2)c(OC)c1 in terms of TGI is > 50 µM

O=C(Nc1ccc(Cl)c(C(F)(F)F)c1)Nc1ccc(-c2cccnc2)cc1N1CCC(CO)CC1 yielded TGI of > 100 µM

// TGI value for O=C(O)c1cnc2c(ccc3[nH]cccc32)c1=O : > 100 µM
